# ASSAY PROCEDURE: Stability in human plasma
# Format: in vitro ADME
MEASURED QUANTITY: recovery

Would you kindly share the measured recovery for `CO[C@H]1/C=C\C=C(/C)C(=O)NC2=CC(=O)C(NCCCCCC[P+](c3ccccc3)(c3ccccc3)c3ccccc3)=C(C[C@@H](C)C[C@H](OC)[C@H](O)[C@@H](C)/C=C(\C)[C@@H]1OC(N)=O)C2=O` ? 82.8%

* * *

# ASSAY PROCEDURE: in vitro
# CONDITION SUMMARY: human, Caco-2, Papp Efflux Ratio (ER)
MEASURED QUANTITY: efflux ratio at 90 min
Respond numerically, and do not add a unit to the figure.

Would you kindly share the measured efflux ratio at 90 min for `CO[C@H]1/C=C\C=C(/C)C(=O)NC2=CC(=O)C(NCCCCCC[P+](c3ccccc3)(c3ccccc3)c3ccccc3)=C(C[C@@H](C)C[C@H](OC)[C@H](O)[C@@H](C)/C=C(\C)[C@@H]1OC(N)=O)C2=O` ? 5.77

* * *

# SYSTEM: KCNQ1/minK (Homo sapiens, UniProt P51787)
# ASSAY PROCEDURE: Ion channel screening, KCNQ1/minK
# Assay type: cell-based
# CONDITION SUMMARY: n=16, read-out: inhibition of KCNQ1/mink currents
MEASURED QUANTITY: inhibition at 10 µM (%)
Numeric answer only, unit % assumed.

Would you kindly share the measured inhibition at 10 µM for `CO[C@H]1/C=C\C=C(/C)C(=O)NC2=CC(=O)C(NCCCCCC[P+](c3ccccc3)(c3ccccc3)c3ccccc3)=C(C[C@@H](C)C[C@H](OC)[C@H](O)[C@@H](C)/C=C(\C)[C@@H]1OC(N)=O)C2=O` ? 22.5

* * *

# ASSAY PROCEDURE: Gamitrinib pharmacokinetics (PK) in rat plasma, single IV dose
# Format: in vivo, Sprague-Dawley rats
# CONDITION SUMMARY: Sprague-Dawley, rat, plasma, iv, 5 mg/kg, 5 mg/kg IV; individual animals Rat 1-3; read-out: Vz
MEASURED QUANTITY: Vd (L/kg)
Numeric answer only, unit L/kg assumed.

Would you kindly share the measured Vd for CO[C@H]1/C=C\C=C(/C)C(=O)NC2=CC(=O)C(NCCCCCC[P+](c3ccccc3)(c3ccccc3)c3ccccc3)=C(C[C@@H](C)C[C@H](OC)[C@H](O)[C@@H](C)/C=C(\C)[C@@H]1OC(N)=O)C2=O [Gamitrinib] ? 79.7

* * *

# ASSAY PROCEDURE: Gamitrinib pharmacokinetics (PK) in rat plasma, single IV dose
# Format: in vivo, Sprague-Dawley rats
# CONDITION SUMMARY: Sprague-Dawley, rat, plasma, iv, 5 mg/kg, 5 mg/kg IV; individual animals Rat 1-3
MEASURED QUANTITY: AUC(0-inf)
Numeric answer plus unit only.

Would you kindly share the measured AUC(0-inf) for CO[C@H]1/C=C\C=C(/C)C(=O)NC2=CC(=O)C(NCCCCCC[P+](c3ccccc3)(c3ccccc3)c3ccccc3)=C(C[C@@H](C)C[C@H](OC)[C@H](O)[C@@H](C)/C=C(\C)[C@@H]1OC(N)=O)C2=O [Gamitrinib] ? 1050 ng·h/mL

* * *

# SYSTEM: hERG (Homo sapiens, UniProt Q12809)
# Construct: expressed in transfected cells; host or cells: HEK293 (ATCC), polyclonal, stably transfected, G418 selection
# Sequence (Q12809 whole entry): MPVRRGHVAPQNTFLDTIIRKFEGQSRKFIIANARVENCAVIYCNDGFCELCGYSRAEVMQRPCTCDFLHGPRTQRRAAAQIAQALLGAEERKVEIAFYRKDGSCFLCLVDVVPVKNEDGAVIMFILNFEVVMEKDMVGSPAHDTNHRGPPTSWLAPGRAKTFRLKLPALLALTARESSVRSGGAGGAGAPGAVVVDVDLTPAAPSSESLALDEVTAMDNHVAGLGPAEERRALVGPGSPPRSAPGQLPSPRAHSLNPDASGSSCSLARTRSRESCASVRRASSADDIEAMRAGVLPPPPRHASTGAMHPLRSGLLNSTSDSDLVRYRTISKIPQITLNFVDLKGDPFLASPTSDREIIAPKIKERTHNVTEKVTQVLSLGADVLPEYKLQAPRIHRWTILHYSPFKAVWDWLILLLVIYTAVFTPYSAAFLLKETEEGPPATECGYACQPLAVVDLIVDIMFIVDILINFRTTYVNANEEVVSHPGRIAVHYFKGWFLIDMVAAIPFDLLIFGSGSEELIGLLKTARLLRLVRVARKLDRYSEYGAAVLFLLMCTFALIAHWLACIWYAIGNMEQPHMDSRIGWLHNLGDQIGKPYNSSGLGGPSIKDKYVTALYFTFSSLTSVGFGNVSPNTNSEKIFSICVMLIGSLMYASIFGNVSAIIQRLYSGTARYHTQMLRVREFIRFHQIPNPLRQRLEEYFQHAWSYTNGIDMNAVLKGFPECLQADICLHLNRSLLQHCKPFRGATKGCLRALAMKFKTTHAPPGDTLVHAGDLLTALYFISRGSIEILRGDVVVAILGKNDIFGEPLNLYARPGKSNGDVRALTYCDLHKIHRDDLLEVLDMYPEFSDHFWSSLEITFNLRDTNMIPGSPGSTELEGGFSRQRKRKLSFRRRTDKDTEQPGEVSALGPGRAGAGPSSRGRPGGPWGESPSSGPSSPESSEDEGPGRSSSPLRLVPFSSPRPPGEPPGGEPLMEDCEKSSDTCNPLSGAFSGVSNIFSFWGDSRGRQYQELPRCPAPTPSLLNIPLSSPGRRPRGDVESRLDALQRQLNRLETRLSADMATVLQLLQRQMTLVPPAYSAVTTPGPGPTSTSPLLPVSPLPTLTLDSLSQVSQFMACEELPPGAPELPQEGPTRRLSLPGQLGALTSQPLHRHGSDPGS
# ASSAY PROCEDURE: Patch clamp recording of hERG currents in transfected HEK293 cells
# Assay type: cell-based
# CONDITION SUMMARY: human, HEK293 cells stably transfected with hERG, pH 7.4; 1 μM; transfected HEK293 cells; mean±SD
MEASURED QUANTITY: inhibition at 1 µM (%)
Numeric answer only, unit % assumed.

Would you kindly share the measured inhibition at 1 µM for CO[C@H]1/C=C\C=C(/C)C(=O)NC2=CC(=O)C(NCCCCCC[P+](c3ccccc3)(c3ccccc3)c3ccccc3)=C(C[C@@H](C)C[C@H](OC)[C@H](O)[C@@H](C)/C=C(\C)[C@@H]1OC(N)=O)C2=O [Gamitrinib] ? 11.7

* * *

# ASSAY PROCEDURE: Gamitrinib pharmacokinetics (PK) in rat plasma, single IV dose
# Type: in vivo, Sprague-Dawley rats
# CONDITION SUMMARY: Sprague-Dawley, rat, plasma, intravenous, 5 mg/kg, 5 mg/kg IV; 240 min; animals 1-3
MEASURED QUANTITY: concentration at 240 min (ng/mL)
Numeric answer only, unit ng/mL assumed.

Would you kindly share the measured concentration at 240 min for `CO[C@H]1/C=C\C=C(/C)C(=O)NC2=CC(=O)C(NCCCCCC[P+](c3ccccc3)(c3ccccc3)c3ccccc3)=C(C[C@@H](C)C[C@H](OC)[C@H](O)[C@@H](C)/C=C(\C)[C@@H]1OC(N)=O)C2=O` ? 36.8

* * *

# ASSAY PROCEDURE: Gamitrinib pharmacokinetics (PK) in rat plasma, single IV dose
# Format: in vivo, Sprague-Dawley rats
# CONDITION SUMMARY: Sprague-Dawley, rat, plasma, intravenous, 5 mg/kg, 5 mg/kg IV; 15 min; animals 1-3
MEASURED QUANTITY: concentration at 15 min (ng/mL)
Numeric answer only, unit ng/mL assumed.

Would you kindly share the measured concentration at 15 min for CO[C@H]1/C=C\C=C(/C)C(=O)NC2=CC(=O)C(NCCCCCC[P+](c3ccccc3)(c3ccccc3)c3ccccc3)=C(C[C@@H](C)C[C@H](OC)[C@H](O)[C@@H](C)/C=C(\C)[C@@H]1OC(N)=O)C2=O [Gamitrinib] ? 212

* * *

# ASSAY PROCEDURE: Gamitrinib pharmacokinetics (PK) in rat plasma, single IV dose
# Format: in vivo, Sprague-Dawley rats
# CONDITION SUMMARY: Sprague-Dawley, rat, plasma, iv, 5 mg/kg, 5 mg/kg IV; mean, n=3; read-out: AUClast (AUC0-t)
MEASURED QUANTITY: AUC(0-t) (ng·h/mL)
Numeric answer only, unit ng·h/mL assumed.

Would you kindly share the measured AUC(0-t) for `CO[C@H]1/C=C\C=C(/C)C(=O)NC2=CC(=O)C(NCCCCCC[P+](c3ccccc3)(c3ccccc3)c3ccccc3)=C(C[C@@H](C)C[C@H](OC)[C@H](O)[C@@H](C)/C=C(\C)[C@@H]1OC(N)=O)C2=O` ? 783

* * *

# ASSAY PROCEDURE: Gamitrinib pharmacokinetics (PK) in rat plasma, single IV dose
# Format: in vivo, Sprague-Dawley rats
# CONDITION SUMMARY: Sprague-Dawley, rat, plasma, iv, 5 mg/kg, 5 mg/kg IV; individual animals Rat 1-3; read-out: AUClast
MEASURED QUANTITY: AUC(0-t) (ng·h/mL)
Numeric answer only, unit ng·h/mL assumed.

Would you kindly share the measured AUC(0-t) for `CO[C@H]1/C=C\C=C(/C)C(=O)NC2=CC(=O)C(NCCCCCC[P+](c3ccccc3)(c3ccccc3)c3ccccc3)=C(C[C@@H](C)C[C@H](OC)[C@H](O)[C@@H](C)/C=C(\C)[C@@H]1OC(N)=O)C2=O` ? 851

* * *

# SYSTEM: hERG (Homo sapiens, UniProt Q12809)
# Construct: expressed in transfected cells; host or cells: HEK293 (ATCC), polyclonal, stably transfected, G418 selection
# ASSAY PROCEDURE: Patch clamp recording of hERG currents in transfected HEK293 cells
# Assay type: cell-based
# CONDITION SUMMARY: human, HEK293 cells stably transfected with hERG, pH 7.4; 0.5 μM; transfected HEK293 cells; mean±SD
# Method: Caco-2 and HEK293 cells were obtained from the American Type Culture Collection (ATCC, Manasass, Va.) and grown in culture according to the supplier's specifications. […] For electrophysiology recording, a micropipette was pulled from borosilicate glass with the pipette tip resistance between 3˜5 MΩ. […] The % inhibition of the test article was calculated from the following equation: […]
MEASURED QUANTITY: inhibition at 0.5 µM (%)
Numeric answer only, unit % assumed.

Would you kindly share the measured inhibition at 0.5 µM for `CO[C@H]1/C=C\C=C(/C)C(=O)NC2=CC(=O)C(NCCCCCC[P+](c3ccccc3)(c3ccccc3)c3ccccc3)=C(C[C@@H](C)C[C@H](OC)[C@H](O)[C@@H](C)/C=C(\C)[C@@H]1OC(N)=O)C2=O` ? -0.68

* * *

# ASSAY PROCEDURE: Gamitrinib pharmacokinetics (PK) in rat plasma, single IV dose
# Assay type: in vivo, Sprague-Dawley rats
# CONDITION SUMMARY: Sprague-Dawley, rat, plasma, iv, 5 mg/kg, 5 mg/kg IV; mean, n=3; read-out: Cmax
MEASURED QUANTITY: Cmax (ng/mL)
Numeric answer only, unit ng/mL assumed.

Would you kindly share the measured Cmax for `CO[C@H]1/C=C\C=C(/C)C(=O)NC2=CC(=O)C(NCCCCCC[P+](c3ccccc3)(c3ccccc3)c3ccccc3)=C(C[C@@H](C)C[C@H](OC)[C@H](O)[C@@H](C)/C=C(\C)[C@@H]1OC(N)=O)C2=O` ? 1180

The values you see were collected from patent US20230277569A1.
